# Test system: U251 human glioblastoma cell line
# assay_procedure: in vitro FM-HCR assay of MGMT activity (mPlum O^6MeG reporter plasmid)
# Format: cell-based
# test_settings: MGMT activity (a.u.) in O^6BG divided by DMSO x 100; higher values indicate resistance
outcome_measure: Relative MGMT activity (%)
Could you give me the number in %? Just the number is fine.

Lookup: What Relative MGMT activity (%) value was documented for this molecule, N137D: MGMT polypeptide with mutation N137D (protein) MDKDCEMKRTTLDSPLGKLELSGCEQGLHEIKLLGKGTSAADAVEVPAPAAVLGGPEPLMQCTAWLNAYFHQPEAIEEFPVPALHHPVFQQESFTRQVLWKLLKVVKFGEVISYQQLAALAGNPKAARAVGGAMRGDPVPILIPCHRVVCSSGAVGNYSGGLAVKEWLLAHEGHRLGKPGLGGSSGLAGAWLKGAGATSGSPPAGRN ?
Found: 64.9
